# Tested on: XF 498 CNS
# Test method notes: NCI tumour cell line growth inhibition, 48 h
Below, each entry is listed alongside its reported log10(TGI).
The figures below represent log10 of TGI, where TGI is stated in µM.

Record excerpt, results attached:
Compound | log10(TGI)
CCOC1c2cc(OC)c(OC)cc2-c2ccc3ccccc3c2N1C (stereo not drawn) | 1.50
O=C1C=Cc2c(-c3ccccc3)oc3cccc1c23 | 1.83
O=C1NC(=O)C2C1c1[nH]c3ccccc3c1C1CCCC12 (stereo not drawn) | 0.84
C/C1=C/C2OC(=O)C3(C)C2C(CC2(C)OC1=CC2=O)OC3(O)C(C)C (stereo not drawn) | 1.61
C[PH+](C)C.C[PH+](C)C.[Au] | 0.89
CSC1C=C(C(C)C)CCC1(C)SC (stereo not drawn) | 1.53

Reported log10(TGI) (XF 498 CNS) for entry CN(C)c1ccc(Cc2cc(C(C)(C)C)cc(C(C)(C)C)c2O)cc1 is 1.56

Reported log10(TGI) (XF 498 CNS) for entry O=c1ccc2ccc(O)c3c4c(=O)ccc5ccc(O)c(c1c23)c54 is 0.51

Reported log10(TGI) (XF 498 CNS) for entry Cc1cc(Br)ccc1NC1=CC(=O)C(=O)c2ccccc21 is 1.95

---

# Tested on: CAKI-1 renal
# Test method notes: NCI tumour cell line growth inhibition, 48 h
Measurement kind: TGI

Reported TGI ( CCOC(=O)C(=O)Nc1cccc(Cl)c1C ) = > 100 µM

Reported TGI ( Cc1cc(=O)[nH]c(NN2C(Cl)C(=O)C2c2ccc(O)cc2)n1 (stereo unspecified) ) = 20.4 µM

Reported TGI ( C[C@H](NS(=O)(=O)c1ccc(NC(=O)c2ccccc2)cc1)C(=O)O ) = > 100 µM

Reported TGI ( Cc1c(-c2ccc(O)c(O)c2)oc(=O)c2c(O)cc(O)cc12 ) = 46.5 µM

Reported TGI ( O=c1c2ccccc2sc2nc(CCl)nn12 ) = 22.3 µM

Reported TGI ( CC1(C)CC2(S(=O)(=O)c3ccccc3)ON1CC2S(=O)(=O)c1ccccc1 (stereo unspecified) ) = > 100 µM

Reported TGI ( COc1ccc(/C=C/C(=O)Oc2ccc(/C=C3\CCCCC3=O)cc2)cc1 ) = > 100 µM

Reported TGI ( CC(=O)Oc1cc2c[n+](C)c3c4cc(OC(C)=O)c(OC(C)=O)cc4ccc3c2cc1OC(C)=O ) = > 100 µM

Reported TGI ( O=C(O)c1cccc(CN2CCCCC2)c1 ) = > 100 µM

Reported TGI ( CC(=O)NC1C(O)CC(OCCCSCCN)(C(=O)O)OC1C(O)C(O)CO (stereo unspecified) ) = > 100 µM

Reported TGI ( CC(C)(C)c1ccc2c(c1)S(=O)(=O)Nc1cccc(c1)NS(=O)(=O)c1cc(C(C)(C)C)ccc1OCCOCCO2 ) = > 100 µM

---

# Tested on: RXF 393 renal
# Test method notes: NCI tumour cell line growth inhibition, 48 h
Measurement kind: TGI (µM)
The reply should be a number in µM, with the unit left off.

Record excerpt, results attached:
Compound | Units | TGI
COC(=O)c1c(C(=O)OC)c2ccc(-c3ccc(Cl)cc3)nn2c1C(=O)c1ccc([N+](=O)[O-])cc1 | µM | 55.5
NCCOc1ncccc1/C=C1\C2C=CC=CC2C2C=CC(F)=CC12 (stereo not given) | µM | 3.17
COc1cc2c(cc1OCCCCOc1cc3nc(C)nc(Cl)c3cc1OC)N=C[C@@H]1CCCN1C2=O | µM | 4.64
CCCCCCCCCC1CC(=O)Oc2cccc(O)c21 (stereo not given) | µM | 46.6
COc1ccc2[nH]c(C(=O)N3CCN(C(=O)OCc4ccc5c(Br)cc(Br)c(O)c5n4)CC3)cc2c1 | µM | 0.575
CCOC1c2cc(OC)c(OC)cc2-c2ccc3ccccc3c2N1C (stereo not given) | µM | 58.5

Turning to the following compound.
Reported TGI ( CN1CCN(Cn2nc(COc3ccc(Cl)cc3)n(/N=C/c3ccc(-c4ccc(Cl)cc4Cl)o3)c2=S)CC1 ) = 7.13

---

# Tested on: LOX IMVI melanoma
# Test method notes: NCI tumour cell line growth inhibition, 48 h
Measurement kind: TGI (µM)
The reply should be a number in µM, with the unit left off.

Molecule | Measurement kind | Recorded measurement
COc1cc2c(cc1OCCCCOc1cc3nc(C)nc(Cl)c3cc1OC)N=C[C@@H]1CCCN1C2=O | TGI | 3.04
N#CCCN1C/C(=C/c2ccccc2)C(=O)/C(=C/c2ccccc2)C1 | TGI | 2.47
CCOC(=O)C(C(N)=O)c1nc2cc([N+](=O)[O-])ccc2nc1/C=C(\O)c1ccccc1 (centres undefined) | TGI | 28.7

Reported TGI ( O=C(/C=C/c1ccccc1O)C(c1ccccc1)c1ccccc1 ) = 62.3

Reported TGI ( C=C[C@@]1(C)CC2(C=C(CO)C(O)O2)Oc2c1c(=O)oc1cccc(C)c21 (some centres undefined) ) = 13.7

Reported TGI ( C=C(C)C(=O)OC1C[C@H](COC(C)=O)C2CC=C(C)C2C2OC(=O)C(=C)[C@H]12 (some centres undefined) ) = 4.86

Reported TGI ( O=C(CCl)Nc1ccc2c(Nc3cc(O)ccc3Cl)ncnc2c1 ) = 3.64

---

# System: HCT-15 colon
# Test method notes: NCI tumour cell line growth inhibition, 48 h
Below, each entry is listed alongside its reported TGI.

Record excerpt, results attached:
Molecule | Target desc | TGI
COC(=O)c1ccc([C@H]2c3[nH]c4ccccc4c3C[C@H](C(=O)OC)N2C(=O)CCl)cc1 | HCT-15 colon | 2.65 µM
O=S(=O)(/N=C(\NO)Nc1ccc(Cl)cc1)c1cc2ccccc2o1 | HCT-15 colon | 34.2 µM
Cc1ccnc2[nH]c(-c3cccc4ccccc34)cc(=O)c12 | HCT-15 colon | > 100 µM
O=C1N=C(c2c(-c3[nH]c(=O)c4ccc(Br)cc4c3O)c(O)c3ccccc3c2O)C(=O)c2cc(Br)ccc21 | HCT-15 colon | 0.672 µM
COc1ccc(-c2nc3cc(F)ccc3s2)cc1O | HCT-15 colon | > 100 µM

Reported TGI (HCT-15 colon) for entry Cc1cc(C)n(-c2nc3ccccc3c(=O)[nH]2)n1 is 23.9 µM

Reported TGI (HCT-15 colon) for entry C[Si](C)(C)CC(N)=O is > 100 µM

Reported TGI (HCT-15 colon) for entry CO/C(N)=C(\C#N)N=Cc1ccccc1 is > 100 µM

---

# Tested on: SF-268 CNS
# Test method notes: NCI tumour cell line growth inhibition, 48 h
Below, each entry is listed alongside its reported TGI.

Record excerpt, results attached:
Compound | Measurement kind | Recorded measurement
CC(=O)O[C@H]1C(=O)[C@@]2(C)[C@H]([C@H](OC(=O)c3ccccc3)[C@]3(O)C[C@H](OC(=O)[C@H](O)[C@@H](NC(=O)c4ccoc4)c4ccccc4)C(C)=C1C3(C)C)[C@]1(OC(C)=O)CO[C@@H]1C[C@@H]2O | TGI | > 100 µM
O=C(/C=C/c1ccccc1O)C(c1ccccc1)c1ccccc1 | TGI | > 100 µM
COc1ccc(-c2c3ccccc3c(-c3ccc(OC)cc3)c3ccccc23)cc1 | TGI | > 100 µM

Reported TGI ( N#Cc1cc(-c2nc3cc(F)ccc3s2)ccc1N ) = > 78.3 µM

Reported TGI ( O=C1NC(=O)C2C1c1[nH]c3ccccc3c1C1CCCC12 (centres undefined) ) = 39.1 µM

---

Below are GI50 values recorded for NCI-H460 lung.

Record excerpt, results attached:
Molecule | Target desc | GI50
COc1ccc2[nH]c(C(=O)N3CCN(C(=O)OCc4ccc5c(Br)cc(Br)c(O)c5n4)CC3)cc2c1 | NCI-H460 lung | 1.36 µM
COc1ccc2nc(NC(=O)COc3cc(/C=C\c4cc(OC)c(OC)c(OC)c4)ccc3OC)sc2c1 | NCI-H460 lung | 3.73 µM
COc1ccc2oc(=O)cc(C3c4ccc([nH]4)C(c4cc(=O)oc5ccc(OC)cc45)c4ccc([nH]4)C(c4cc(=O)oc5ccc(OC)cc45)c4ccc([nH]4)C(c4cc(=O)oc5ccc(OC)cc45)c4ccc3[nH]4)c2c1 (stereo not given) | NCI-H460 lung | 3.11 µM

Reported GI50 (NCI-H460 lung) for entry O=C(Nc1ccc(-n2ccc3c(NC(=O)c4ccccc4)nccc32)cc1)c1cccc(C(F)(F)F)c1 is 0.119 µM

Reported GI50 (NCI-H460 lung) for entry CC12CC[C@@H]3c4cc5c(cc4CC[C@H]3[C@@H]1CCC2O)oc1cc(F)ccc15 (stereo not given in full) is 15.2 µM

Reported GI50 (NCI-H460 lung) for entry CCCCCCCCCCCCCCNc1nc(C(=O)OCC)ncc1-c1ccc(C(F)(F)F)cc1 is > 100 µM
